Target: NADPH oxidase 4 (Homo sapiens) (UniProt Q9NPH5)
Sequence (Q9NPH5 whole entry, looked up): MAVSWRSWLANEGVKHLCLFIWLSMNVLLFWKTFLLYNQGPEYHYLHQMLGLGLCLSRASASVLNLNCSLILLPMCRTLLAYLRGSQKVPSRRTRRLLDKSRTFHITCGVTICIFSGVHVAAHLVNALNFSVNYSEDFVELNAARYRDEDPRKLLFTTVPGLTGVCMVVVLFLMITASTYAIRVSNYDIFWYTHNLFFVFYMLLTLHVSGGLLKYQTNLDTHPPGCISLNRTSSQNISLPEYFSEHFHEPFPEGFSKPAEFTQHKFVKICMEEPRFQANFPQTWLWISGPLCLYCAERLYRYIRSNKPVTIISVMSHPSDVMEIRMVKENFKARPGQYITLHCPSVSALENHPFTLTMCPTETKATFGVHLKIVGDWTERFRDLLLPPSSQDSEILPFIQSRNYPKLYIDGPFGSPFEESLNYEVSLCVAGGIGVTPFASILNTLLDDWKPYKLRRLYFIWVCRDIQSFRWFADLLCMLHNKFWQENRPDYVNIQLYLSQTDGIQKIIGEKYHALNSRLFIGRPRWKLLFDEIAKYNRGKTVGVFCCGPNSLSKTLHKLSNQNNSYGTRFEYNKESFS
Assay: NOX4-dependent H2O2 signal modulators, primary screen, NOX inhibitor project, cell-based, HEK293-NOX4, tetracycline-induced, Amplex Red fluorescence (AID 1160)
Conditions: 45 min, higher = more signal, called active from +8 up or from −8 down
// reported z-score for each item listed
READOUT_NAME: z-score

| COMPOUND | READING |
| --- | --- |
| COC(=O)C(CC#Cc1ccc2c(c1)[C@]1(C(=O)N2)[C@H](c2ccc(OCCO)cc2)N2[C@H](c3ccccc3)[C@H](c3ccccc3)OC(=O)[C@H]2[C@@H]1C(N)=O)C(=O)OC | 0.784 |
| C=CCC(OC(C)=O)[C@@H]1[C@@H](N(Cc2ccc(-c3ccccc3)cc2)C(=O)Cc2ccc(OC)cc2)c2cc(OCCCO)ccc2N1C(=O)Cc1ccc(OC)cc1 (some centres not stated) | 0.194 |
| COc1ccc(C(O)C2C=CC3C(=O)N(c4ccccc4)C(=O)C3N2Nc2ccccc2F)c2ccccc12 (configuration not stated) | -1.7 |
| Cc1ccc(S[C@]2(C(=O)NC(C)C)CC(=O)N(Cc3ccccc3)[C@@H]2c2ccc(CO)cc2)cc1 | 0.0692 |
| COC(=O)[C@@]1(Cc2ccccc2)[C@H]2c3cc(C(=O)N(C)C)n(CCF)c3C[C@H]2CN1C(=O)c1ccccc1 | -1.73 |
| Cc1ccc(S(=O)(=O)N2[C@@H](c3ccccc3)C(C(=O)O)=CC[C@H]2c2ccc(F)cc2)cc1 | 0.605 |
| O=C1O[C@@H](c2ccccc2)[C@@H](c2ccccc2)N2[C@@H](c3ccccc3OCCO)[C@]3(C(=O)Nc4ccc(C#CC5(O)CCCCCC5)cc43)[C@@H](C(=O)N3CCCCCCC3)[C@H]12 | -0.596 |

---

Target: NADPH oxidase 2 (Homo sapiens) (UniProt P04839)
Sequence (P04839 whole entry, looked up): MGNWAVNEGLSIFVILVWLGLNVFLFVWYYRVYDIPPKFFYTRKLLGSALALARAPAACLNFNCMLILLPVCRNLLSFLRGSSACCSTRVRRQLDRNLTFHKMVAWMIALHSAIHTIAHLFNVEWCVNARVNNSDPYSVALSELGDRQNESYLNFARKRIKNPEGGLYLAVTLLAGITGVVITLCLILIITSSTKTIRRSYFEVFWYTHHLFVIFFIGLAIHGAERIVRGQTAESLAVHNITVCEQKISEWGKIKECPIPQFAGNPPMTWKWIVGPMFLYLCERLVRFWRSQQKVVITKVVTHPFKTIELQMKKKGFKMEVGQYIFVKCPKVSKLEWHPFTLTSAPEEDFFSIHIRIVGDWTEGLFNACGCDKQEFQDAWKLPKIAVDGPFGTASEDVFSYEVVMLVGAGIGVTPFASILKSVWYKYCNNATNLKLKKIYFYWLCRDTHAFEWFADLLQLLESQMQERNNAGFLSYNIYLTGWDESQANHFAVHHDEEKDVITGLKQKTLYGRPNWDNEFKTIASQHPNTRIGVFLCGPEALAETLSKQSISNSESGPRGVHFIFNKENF
Test: NOX2-dependent H2O2 signal modulators, primary screen, NOX inhibitor project, cell-based, HEK293-NOX2, PMA-stimulated, Amplex Red fluorescence (AID 1159); further: test concentration not given here
Conditions: 45 min, higher = more signal, called active from +8 up or from −8 down
Classification by z-score follows these ranges: bottom end = under -0.9, midrange = from -0.9 up to 0.09, top end = 0.09 and over

| COMPOUND | GROUP_LABEL |
| --- | --- |
| C[C@]1(C(=O)NC2CC2)c2ccccc2C(=O)N(Cc2cc(F)cc(C(F)(F)F)c2)[C@H]1c1ccc(CO)cc1 | midrange |
| COc1c(C)cc(-c2nc(-c3ccccc3)c3c(c2C)CO[Si]3(C(C)C)C(C)C)cc1C | midrange |
| COC(=O)[C@@]1(Cc2ccc(F)cc2)[C@@H]2C(=CC(=O)[C@H]2CC(=O)C(=O)N2CCCC2)CN1C(=O)c1ccccc1 | bottom end |
| COC(=O)[C@@]1(Cc2ccc(F)cc2)[C@H]2c3cc(C(=O)N(C)C)n(CCF)c3C[C@H]2CN1C(=O)c1ccccc1 | top end |
| COc1ccc(C(=O)Nc2ccc(CN3C(=O)[C@@]4(O[C@@H](CC(=O)N(CCO)Cc5ccccc5)[C@H]([Si](C)(C)c5ccc(OC)cc5)[C@H]4C)c4ccccc43)cc2)cc1 | top end |
| C=CCNC(=O)[C@H]1[C@@H]2C(=O)O[C@@H](c3ccccc3)[C@@H](c3ccccc3)N2[C@@H](c2ccc(O)cc2)[C@]12C(=O)Nc1ccc(C#CCC(C(=O)OC)C(=O)OC)cc12 | top end |
| C=C(COC)C(=O)CC[C@H](OC(C)=O)c1ccc(CO)o1 | bottom end |
| C=C(/C=C\CNS(=O)(=O)c1ccc(C)cc1)[C@H](O)[C@H]1CCCN1S(=O)(=O)c1ccccc1[N+](=O)[O-] | midrange |
| CS(=O)(=O)CCOC(=O)C1=CC(CCCO)=CC(C2CC2)N(Cc2sc3ccccc3c2Cl)C=C1C(=O)OCCS(C)(=O)=O (stereo not given) | midrange |
| COC(=O)[C@@]1(Cc2ccccc2)[C@H]2c3cc(C(=O)N(C)C)n(Cc4ccc(Cl)c(C(F)(F)F)c4)c3C[C@H]2CN1C(=O)c1ccccc1 | midrange |
| [N-]=[N+]=NCc1ccccc1[C@H]1OC(c2ccc(OCCCO)cc2)=N[C@@]1(Cc1ccccc1N=[N+]=[N-])C(=O)N1CCOCC1 | bottom end |
| O=C1C2C=CC(C(O)C3CC=CCC3)N(Nc3ccc([N+](=O)[O-])cc3)C2C(=O)N1c1ccccc1 (stereo not given) | bottom end |
| CN1C(=O)C2C(C1=O)C1C=C(CCCO)C2C(C2CC2)N1C (stereo not given) | midrange |

Source: PubChem BioAssay
